reported-endpoint: melting point

// solved cases for melting point follow
- compound: "CC(=O)N1CCC(CC(=O)c2ccc(Nc3ncnc4c3CCC4)cc2)CC1"
  melting point: "225 to 227 °C"
- compound: "C=C(c1ccc(N(C)C)cc1)c1ccc(N(C)C)cc1"
  melting point: "115 °C"
- compound: "NN=c1[nH]c2ccc(Br)cc2cc1[N+](=O)[O-]"
  melting point: "187 °C"

For each entry beneath this line, provide reported melting point.
1. BrCc1cc(-c2ccccc2)no1
2. COC(=O)CCc1cccc(OCCC2Oc3ccccc3N(Cc3cccc(Cl)c3)C2=O)c1 (stereo not given)
3. COCCO[C@@H]1c2ccn3c(C)c(C)nc3c2N[C@H](c2ccccc2)[C@H]1OC(=O)OC

["87 °C", "92 to 94 °C", "176 to 177 °C"]

====

reported-endpoint: melting point

# example entries with known answers
- compound: "COC(=O)c1ccc(S(C)(=O)=O)c(C=NO)c1Cl"
  reported-endpoint: "melting point"
  reported-result: "126 to 128 °C"
- compound: "C#CCOc1cc(-n2c(=O)cc(C(F)(F)F)[nH]c2=O)ccc1C"
  reported-endpoint: "melting point"
  reported-result: "202 to 204 °C"
- compound: "CC(=O)N[C@@H](CSC(C)=O)C(=O)NCCSC(=O)c1ccccc1"
  reported-endpoint: "melting point"
  reported-result: "166 to 168 °C"
- compound: "CSc1ccc(NC(=O)NCc2cc(C(C)(C)C)c(O)c(C(C)(C)C)c2)cc1"
  reported-endpoint: "melting point"
  reported-result: "141 to 145 °C"
- compound: "CCCOc1ccccc1-c1nc2c(CCC)nn(C)c2c(=S)[nH]1"
  reported-endpoint: "melting point"
  reported-result: "111 to 112 °C"
- compound: "CC1(C)OCc2c1nc1ccccc1c2NCCCN1CCCC1"
  reported-endpoint: "melting point"
  reported-result: "70 to 75 °C"
- compound: "Cc1noc(NS(=O)(=O)c2cccc(Cl)c2)c1Br"
  reported-endpoint: "melting point"
  reported-result: "132 to 134 °C"
- compound: "CC(C)c1cccc(C(C)C)c1NC(=O)CN1C(=O)N(c2ccccc2)C2(CCCC2)C1=O"
  reported-endpoint: "melting point"
  reported-result: "275 to 277 °C"
- compound: "CC1(C)CC(=O)c2c(Sc3ccccc3)sc(C(=O)N3CCCC3)c2C1"
  reported-endpoint: "melting point"
  reported-result: "140 °C"

Here is the next item to consider.
Consider the compound Cc1cc(C)c([C@H](O)[C@@H](C#N)c2ccccc2)c(C)c1 (racemic) and give its recorded melting point.
132 °C

====

For each of the compounds below, state its melting point.

Examples with answers:
- compound: "FC(F)(F)C1(c2ccccc2)CCNCC1"
  reported-endpoint: "melting point"
  reported-result: "87.6 °C"
- compound: "COC(=O)c1cccc2[nH]c(=O)n(Cc3ccc(-c4ccccc4C#N)cc3)c12"
  reported-endpoint: "melting point"
  reported-result: "250 to 253 °C"
- compound: "O=C(C1=CNCCS1)c1ccc(F)cc1"
  reported-endpoint: "melting point"
  reported-result: "212 to 214 °C"
- compound: "COC(=O)C(Cc1ccc(OCCc2nc(-c3ccccc3)oc2C)cc1)C(N)=O (stereo unspecified)"
  reported-endpoint: "melting point"
  reported-result: "155 °C"
- compound: "Cc1nn(C)c(Cl)c1C(=O)Nc1ccccc1"
  reported-endpoint: "melting point"
  reported-result: "157 to 159 °C"

List the reported melting point of each compound below.
1. CC[Si](CC)(CC)c1ccccc1S(N)(=O)=O
2. NS(=O)(=O)c1ccc(NN=Cc2ccc(F)cc2)cc1

1. 85.6 °C
2. 205 to 206 °C

====

Please provide measured melting point for the entries that follow.

Guide cases for melting point, answers given:
- molecule: "CCC(=O)Nc1nc(CC(=O)Nc2nnc(C(C)(C)C)s2)cs1"
  melting point: "210 to 212 °C"
- molecule: "NC(=O)CC[C@H](NC(=O)OCc1ccccc1)C(=O)N[C@@H](Cc1ccc(O)cc1)C(=O)OCc1ccccc1"
  melting point: "165 to 170 °C"
- molecule: "Cc1ccc(-c2nc(COc3ccc(CCCCn4ccnc4)cc3)co2)s1"
  melting point: "82 to 83 °C"
- molecule: "COC(=O)CNC(=O)c1ccc(C(=O)NS(=O)(=O)c2ccc(CCNC(=O)CC3CCCCC3)cc2)cn1"
  melting point: "178 to 179 °C"
- molecule: "COc1cc(O)c2c(c1)OC(C(C)(C)C=O)CC2=O (centres undefined)"
  melting point: "93 to 94 °C"
- molecule: "CC(C)NC(=O)c1c[nH]c2ncc(-c3nn(C)c4cc(Cl)cc(F)c34)nc12"
  melting point: "347 to 349 °C"
- molecule: "O=C(O)CCN1CCN(c2ccccc2)CC1"
  melting point: "213 to 215 °C"
- molecule: "O=C(NC1=NN(c2ccc(Cl)cc2)C(c2ccccc2)C1)C(F)(F)F (centres undefined)"
  melting point: "176 to 178 °C"

Tell me measured melting point for `O=C(O)COc1c(Br)cc(-c2ccc(-c3c(Cc4ccccc4)sc4ccccc34)cc2)cc1Br` please.
183 to 185 °C

====

Provide the reported melting point of each item.

Worked set:
- compound: "NS(=O)(=O)c1sccc1C(F)=C(F)Cl"
  reported-result: "112 to 116 °C"
- compound: "O=C(CSCc1ccc2c(c1)OCO2)NO"
  reported-result: "127 to 128 °C"
- compound: "O=C(NCCCCCCOC(=O)N1CCC2(CCCC2)CC1)OC1CCN(C(=O)Oc2cccc(Oc3ccccc3)c2)CC1"
  reported-result: "72 to 120 °C"
- compound: "CC(=O)c1cnc2c(c1)[C@@H](NC(=O)c1ccccc1Cl)[C@H](O)C(C)(C)O2 (relative stereo)"
  reported-result: "243 to 244 °C"

Tell me measured melting point for COc1ccccc1N1CCN(CC(Cc2ccccc2)C(=O)O)CC1 (stereo not given) please.
155 to 158 °C

====

Can you tell me melting point for the items I'm about to list?

Look over these answered cases.
- molecule: "Cc1oc(-c2ccccc2)nc1CCC(=NO)c1ccc(CCCC2OC(=O)NC2=O)cc1 (stereo not given)"
  reported-endpoint: "melting point"
  reported-result: "185 to 186 °C"
- molecule: "COc1ccc(C(CN(C)C)C2CCCCC2O)cc1 (stereo not given)"
  reported-endpoint: "melting point"
  reported-result: "77 to 79 °C"
- molecule: "COc1ccc(C2NC(=O)C2OC(C)=O)cc1 (stereo not given)"
  reported-endpoint: "melting point"
  reported-result: "110 to 111 °C"
- molecule: "CCN(C(C)=O)c1ccc(O)cc1"
  reported-endpoint: "melting point"
  reported-result: "183 to 185 °C"
- molecule: "CCN1CN2C(=N1)C(c1ccccc1Cl)=NCC1=C2S(=O)CC1 (stereo not given)"
  reported-endpoint: "melting point"
  reported-result: "199 to 200 °C"

Report melting point for every entry below.
1. CC1(C)Oc2cc(C#N)sc2[C@@H](N2CCCCC2=O)[C@@H]1O (relative stereo)
2. O=S1(=O)NCN(C2CC2)c2c(Cl)cccc21

1: 212 to 214 °C; 2: 142 to 143 °C

Look at each molecule and report its melting point.
1. Cc1ccc(Cn2ncnc2C(C)NS(=O)(=O)c2ccc(Cl)s2)cc1 (stereo not given)
2. CN1CC(c2cccc(C(F)(F)F)c2)C(=O)C(c2ccccc2Cl)C1 (stereo not given)
3. COc1ccc(-n2nc(Sc3ccc(S(C)=O)cc3)c(C)c(C#N)c2=O)cc1 (stereo not given)

1. 116 to 117 °C
2. 90 to 92 °C
3. 176 to 178 °C

====

reported-endpoint: melting point

Answered cases to consult:
- compound: "O=C(O)c1cn(-c2ccc(F)cc2F)c2cc(-c3ccncc3)ccc2c1=O"
  melting point: "291 to 292 °C"
- compound: "CC(C)=CCC(O)C(C)C1CC=C2C3=C(CCC21C)C1(C)CCC(O)C(C)(C)C1CC3 (stereo not given)"
  melting point: "70 to 72 °C"
- compound: "OC[C@H](F)[C@H](OCc1ccccc1)[C@H](OCc1ccccc1)[C@@H](O)C(F)(F)F"
  melting point: "64 to 65 °C"

Please go through the list and note melting point for each compound.
1. CN(C)S(=O)(=O)Cc1ccccc1N
2. COc1cc(C(=O)Cc2ccc(O)cc2)c(O)cc1O
3. O=C1CC(CCc2ccccc2)Nc2ccccc2N1Cc1ccccc1 (stereo not given)
4. CCC1(CC)COP(=O)(Cc2ccc([N+](=O)[O-])cc2)OC1
5. CSc1c(C(Cc2ccccc2)C(=O)O)cc(C)c2c1[nH]c1ccccc12 (stereo not given)
6. CC(C)(C)CC(=O)Nc1ccc2oc3c(c2c1)CCCCCC3

1: 70 to 78 °C; 2: 157 to 159 °C; 3: 135 to 137 °C; 4: 159 to 160 °C; 5: 186 to 187 °C; 6: 157 to 158 °C

Provide the reported melting point of each entry below, same order.
1. Cc1oc(C=Cc2ccccc2Cl)nc1C(=O)O
2. COc1cccc(-c2ncc(C(=O)N(C)Cc3cccc(O)c3)s2)c1F
3. CCCCCc1c(C=CC(=O)OC)nc(C(C)C)c(CO)c1-c1ccc(F)cc1
4. Cn1cc(C2=C(c3cccc(NCCO)c3)C(=O)NC2=O)c2ccccc21
5. NC(=O)c1ccc2ccccc2c1-c1c(P(=O)(c2ccccc2)c2ccccc2)ccc2ccccc12
6. O=C(/C=C/c1ccc(Br)cc1)c1c(F)cccc1F

1. 223 to 224 °C
2. 140 °C
3. 82 to 83 °C
4. 170 to 171 °C
5. 122 °C
6. 71 °C

Parameter requested: melting point. Apply to each item below.
1. CCCCCS(=O)(=O)NC(=O)/C=C/c1ccc(OCCOC)cc1Nc1ccc(C(F)(F)F)cc1
2. Cc1c(N)c(C)c2c(c1CCCO)OCC2c1ccc(C(C)C)cc1 (stereo not given)
3. COC(=O)C1=C(C)Nc2c(c(C)nn2C)C1c1cccc([N+](=O)[O-])c1 (stereo not given)
4. CN1CCN(c2ccc(C(=O)NCCCCCCCCCCO[N+](=O)[O-])cn2)CC1
5. COc1cccc2c1OCN(CCc1ccc(C)cc1)C2
6. CN1CCN(c2ccc(/C=C/c3ccccc3F)cc2)CC1

142 to 143 °C
110 to 111 °C
163 to 166 °C
62 to 64 °C
58 to 63 °C
142 to 144 °C

// for each compound in input: emit melting point
1. NC(=O)Cn1c(-c2ccc(Br)cc2)nc2cccnc21
2. O=C(COCCc1coc2c(O)cccc12)c1ccccc1
3. CCOCCNc1nc(C)c(CCO)c(=O)[nH]1
4. CC(=O)Nc1cccc(-n2ncc(=O)n(Cc3ccc(Cl)cc3F)c2=O)c1

1. > 250 °C
2. 114 to 115 °C
3. 172 °C
4. 184 °C
